species: Canis familiaris; assay: Maximum Percent change from control in the rate of rise of phase 0 of the action potential at 100 uM concentration on Canine Purkinje fibers.; type: Canis lupus familiaris, Purkinje fiber; conditions: dog, in vitro
Item-by-item account of Vmax
The reply should contain only the number, in %.

Documented Vmax of CCN(CC)CCCNC(=O)c1c(O)cc(C)nc1C : 7

Documented Vmax of CCN(CC)CCCNC(=O)c1c(C)[nH]c(C)c1C : -37

----------
species on record: Canis familiaris; experiment: Maximum Percent change from control in the rate of rise of phase 0 of the action potential at 30 uM concentration on Canine Purkinje fibers.; set-up: species or system Canis lupus familiaris, Purkinje fiber; conditions: dog, in vitro
// classify: if (Vmax < -10%) yes else no

Input line: Does this compound meet the criterion Vmax < -10%? CCN(CC)CCCNC(=O)c1cc2ccccc2[nH]1
Output line: yes
